- Experimental System: T1, RPA32 construct spanning the region 210-270 (UniProt P15927 210-270, RED-tris-NTA dye on the His tag)
- T1 construct: RPA32, residues 210-270 (C-terminal winged helix domain); Cloned by LIC; also called RPA32(210-270); C-terminal winged helix domain of RPA32; source: E. coli SoluBL21, purified (Ni-NTA, anion exchange, SEC)
- T1 sequence (P15927 210-270): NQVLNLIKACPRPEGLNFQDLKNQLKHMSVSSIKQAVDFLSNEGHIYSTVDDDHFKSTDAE
- Assay Info: MST; RPA32C labelled with RED-tris-NTA (His-tag labelling kit), 100 nM mixed 1:1 with 2-fold serial dilutions of the ligand; 50 mM HEPES pH 8.0, 400 mM NaCl, 10% glycerol, 0.05% Tween-20; incubated 30 min at 37°C, measured at 25°C; three replicates
- Test Parameters: both partners purified
Quantity Name: Kd (µM)
Give the number; µM is assumed, so skip it.

Recorded Kd (binder LTEEQRKKIEENRQKALARRAEKLLA (SMARCAL1, residues 5-30; also called 26-amino acid SMARCAL1 peptide; source: synthetic peptide, bought: LifeTein, LLC) [SMARCAL1 peptide (residues 5-30)] ): 470
